experiment: Cmax in CD-IGS rat at 10 mg/kg, po administered as single dose; type: ADME, organism-based; parameters: dose 10 mg/kg, route oral; conditions: in vivo
Readout type: Cmax (ng/mL)

I. Cc1cccc2c1CN(C1CCC(=O)NC1=O)C2=O (stereo not drawn)
II. Cc1cccc2c1C(=O)N(C1CCC(=O)NC1=O)C2=O (stereo not drawn)
III. O=C1CCC(N2Cc3c(Cl)cccc3C2=O)C(=O)N1 (stereo not drawn)
Hi! Can you put these in order of Cmax, lowest number first? Answer by naming the labels in the order asked. II, III, I
(II: 440 ng/mL, III: 2800 ng/mL, I: 4600 ng/mL)

* * *

assay: Tmax in CD-IGS rat at 10 mg/kg, po administered as single dose; format: ADME, organism-based; design: dose 10 mg/kg, route oral; details: in vivo
Readout type: Tmax (h)

O=C1CCC(N2Cc3c(Cl)cccc3C2=O)C(=O)N1 (stereo not drawn): 1.7
Cc1cccc2c1C(=O)N(C1CCC(=O)NC1=O)C2=O (stereo not drawn): 2.5
Cc1cccc2c1CN(C1CCC(=O)NC1=O)C2=O (stereo not drawn): 2
